# STUDY_TARGET: Progesterone receptor (Homo sapiens) (UniProt P06401)
# Sequence (P06401 whole entry, looked up): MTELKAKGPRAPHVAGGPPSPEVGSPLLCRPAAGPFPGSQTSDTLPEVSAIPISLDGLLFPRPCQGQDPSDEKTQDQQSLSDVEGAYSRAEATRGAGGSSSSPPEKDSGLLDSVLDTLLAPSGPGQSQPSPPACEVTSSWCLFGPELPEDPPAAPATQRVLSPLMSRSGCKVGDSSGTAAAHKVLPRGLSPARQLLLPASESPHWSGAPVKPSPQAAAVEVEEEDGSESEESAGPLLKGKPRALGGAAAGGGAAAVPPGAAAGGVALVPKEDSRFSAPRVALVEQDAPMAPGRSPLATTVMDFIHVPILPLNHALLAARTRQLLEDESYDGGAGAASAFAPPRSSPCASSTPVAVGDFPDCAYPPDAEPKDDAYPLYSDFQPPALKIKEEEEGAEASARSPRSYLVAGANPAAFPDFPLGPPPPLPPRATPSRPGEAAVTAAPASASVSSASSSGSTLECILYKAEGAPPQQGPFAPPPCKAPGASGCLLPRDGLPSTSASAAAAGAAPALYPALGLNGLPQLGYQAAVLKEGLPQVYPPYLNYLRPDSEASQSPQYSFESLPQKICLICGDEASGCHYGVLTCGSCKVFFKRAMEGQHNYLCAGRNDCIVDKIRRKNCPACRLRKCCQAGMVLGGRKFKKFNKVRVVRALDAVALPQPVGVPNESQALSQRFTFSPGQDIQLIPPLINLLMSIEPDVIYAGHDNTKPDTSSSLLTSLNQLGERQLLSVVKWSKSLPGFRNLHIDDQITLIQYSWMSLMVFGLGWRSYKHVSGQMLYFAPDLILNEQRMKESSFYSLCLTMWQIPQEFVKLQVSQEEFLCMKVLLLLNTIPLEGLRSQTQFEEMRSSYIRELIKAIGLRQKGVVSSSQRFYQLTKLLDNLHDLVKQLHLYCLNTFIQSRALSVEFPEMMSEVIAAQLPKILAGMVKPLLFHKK
# TEST_PROTOCOL: qHTS assay to identify small molecule agonists of the progesterone receptor (PR) signaling pathway (AID 1346784); note: nearly all actives have a fitted effect of over 30% in size
# RECORDED_CONDITIONS: PR-UAS-bla HEK293T, beta-lactamase FRET ratio, 16 h; series mostly up to 92.4 µM
Records with an inconclusive call do not appear. Active and inactive are the calls of the source. Calls come from the whole dose curve.
Hello, when you answer, please use one of the following outcomes: 1.0 for active, 0.0 for inactive

COC[C@H](C)N(C(=O)CCl)c1c(C)csc1C: 0.0
CCCCOP(=O)(CCCC)OCCCC: 0.0
ClC1=C(Cl)C2(Cl)C3C(Cl)C=CC3C1(Cl)C2(Cl)Cl (stereo unspecified): 0.0
CC(=O)Nc1ccc2c(c1)Cc1ccccc1-2: 0.0

Prompt: // return assay outcome for Clc1ccc(C(c2ccccc2Cl)C(Cl)(Cl)Cl)cc1 (stereo unspecified)
Completion: 0.0

Prompt: Lookup CC(=O)c1cc(C(C)(C)C)cc2c1CCC2(C)C
Completion: 0.0

Prompt: Lookup c1ccc2c(c1)OCC(C1=NCCN1)O2 (stereo unspecified)
Completion: 0.0

Prompt: Lookup CC(=O)OC1(c2ccccc2)CCN(CCc2ccccc2)CC1
Completion: 0.0

Prompt: Lookup CC(C)[C@H](C(=O)OC(C#N)c1cccc(Oc2ccccc2)c1)c1ccc(OC(F)F)cc1 (stereo partly specified)
Completion: 0.0

Prompt: Lookup CN(C)CCc1c[nH]c2ccc(O)cc12
Completion: 0.0

Prompt: Lookup OC(Cc1ccccc1Cl)(Cn1cncn1)C1(Cl)CC1 (stereo unspecified)
Completion: 0.0

Prompt: Lookup C=COCCCl
Completion: 0.0
